Molecular target: DLG2_3, Q15700
Assay: holdup assay
Design: key: below the threshold = too weak to quantify, mostly under pKd 3.1 to 4
Details: plain residues with an end cap or a label only (N-terminal biotin on a linker: ado-ado)
Listed below: pKd values for each entry.
endpoint: pKd

binder | endpoint | readoutNumber
TACCHSETVV [TGFA, P01135] | pKd | 4.05
TLPRKRMSSI [GPRC6A, Q5T6X5] | pKd | 3.84
